- procedure details: Oral acute toxicity, LD50 in rats
- test parameters: rat, in vivo, rats weighing 90 grams, fasted 24 hours, one week
Quick reference: LD50 at 168 h of the listed items.
Express the result in mg/kg but write the number alone.

# LD50 at 168 h (compound: C1CCC(NC2CCCCC2)CC1 [dicyclohexylamine, reference compound] ) is 500

Now examine the next entry.
# LD50 at 168 h (compound: C1CCC(NC2CCCCC2)CC1.O=[N+]([O-])O [DICHAN, dicyclohexylamine nitrate, reference compound] ) is 200
